biological target: UniProt:Q9UJM8; test: GO Enzymatic Assay (Assay 1); type: biochemical; set-up: purchased Novus Biologicals NBP1-72412; settings: Table 4; class symbols without asterisk, GO Enzymatic Assay (Assay 1); read-out: Range
measure: IC50

(Q) Input O=C(O)c1[nH]nnc1Oc1ccc(Cl)c(OC2CCCC2)c1 [Compound 381, 2,2,2-trifluoroacetate] , output reported IC50.
(A) < 100 nM

(Q) Input O=C(O)c1[nH]nnc1Oc1ccc(C2CCN(C3CCCCC3)CC2)cc1 [Compound 388, 2,2,2-trifluoroacetate] , output reported IC50.
(A) 1000 to 10000 nM

---

biological target: GO (Mus musculus); construct: endogenous in cells; assay: GO Cellular Assay: Primary Hepatocyte Assay (Assay 2); details: primary mouse hepatocytes, 5 mM glycolate, oxalate at 72 hours; read-out: Range of IC50 values calculated from the cellular assays (Assay 2)
Sequence (Q9WU19 whole entry): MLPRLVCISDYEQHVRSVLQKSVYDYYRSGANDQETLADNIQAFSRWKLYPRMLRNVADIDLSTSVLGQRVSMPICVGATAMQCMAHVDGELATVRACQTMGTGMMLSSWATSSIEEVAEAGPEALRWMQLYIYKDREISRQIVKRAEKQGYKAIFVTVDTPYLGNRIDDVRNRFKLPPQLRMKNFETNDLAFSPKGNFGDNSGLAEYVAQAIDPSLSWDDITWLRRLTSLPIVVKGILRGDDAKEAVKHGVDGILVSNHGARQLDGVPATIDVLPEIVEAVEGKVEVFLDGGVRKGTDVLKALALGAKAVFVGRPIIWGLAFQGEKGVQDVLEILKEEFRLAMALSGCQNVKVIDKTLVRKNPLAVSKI
pIC50: −log10 of the molar value.
measure: pIC50

INSERT INTO assay_data (smiles_repr, endpoint_result) VALUES
  ('CCN(CC)C(=O)OCOC(=O)c1[nH]nnc1O[C@H]1CC[C@H](c2ccc(OC(F)(F)F)cc2)CC1', '> 6.00'),
  ('O=Cc1[nH]nnc1Oc1ccc(-c2ccc(OC(F)(F)F)cc2)cc1', '> 6.00'),
  ('OCc1[nH]nnc1Oc1ccc(-c2ccc(OC(F)(F)F)cc2)cc1', '5.30 to 6.00');

Turning to the following compound.
(Q) Input `OCc1nn[nH]c1Oc1ccc(-c2ccc(N3CCCCC3)cc2)cc1` , output reported pIC50.
(A) > 6.00

---

Recorded measurements of IC50, one per entry
Target: GO (Homo sapiens, UniProt Q9UJM8)
Sequence (Q9UJM8 1-370): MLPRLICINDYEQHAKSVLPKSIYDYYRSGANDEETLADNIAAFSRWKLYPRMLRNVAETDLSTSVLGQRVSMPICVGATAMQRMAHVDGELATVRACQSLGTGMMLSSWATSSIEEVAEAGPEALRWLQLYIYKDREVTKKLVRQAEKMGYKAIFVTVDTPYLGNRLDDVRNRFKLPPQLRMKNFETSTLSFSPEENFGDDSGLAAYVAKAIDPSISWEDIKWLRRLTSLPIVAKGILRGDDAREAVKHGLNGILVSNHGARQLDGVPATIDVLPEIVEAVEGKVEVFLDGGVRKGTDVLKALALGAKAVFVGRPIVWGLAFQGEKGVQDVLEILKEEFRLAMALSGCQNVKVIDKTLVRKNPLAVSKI
Assay: GO Cellular Assay: CHO-Agt Cells Assay (Assay 3)
Type: cell-based, Chinese hamster
Parameters: host or cells: CHO cells (A.T.C.C. CCl-61) and engineered CHO-Agt cells (from Fargue/Danpure)
Details: 100 uM glycolic acid, glyoxylate by LC-MS at 2 hours, read-out: Range of IC50 values calculated from the cellular assays (Assay 3)

INSERT INTO results (molecule, endpoint_result) VALUES
  ('O=Cc1[nH]nnc1Oc1ccc(-c2ccc(OC(F)(F)F)cc2)cc1 [Compound 491]', '< 1 µM'),
  ('OCc1[nH]nnc1Oc1ccc(-c2ccc(Cl)cc2)cc1 [Compound 493-2]', '1 to 5 µM'),
  ('OCc1[nH]nnc1OC1CCN(c2cc(Cl)cc(Cl)c2)CC1 [Compound 494]', '5 to 10 µM');

(Q) Input CCOC(=O)c1[nH]nnc1Sc1nc(-c2ccc(Cl)c(Cl)c2)cs1 [Compound 1] , output reported IC50.
(A) > 10 µM

(Q) Input O=C(OC1CC1)c1[nH]nnc1Oc1ccc2cc(Br)ccc2c1 [Compound 110] , output reported IC50.
(A) 1 to 5 µM

(Q) Input OCc1[nH]nnc1Sc1ccc(-c2ccc(OC(F)(F)F)cc2)cc1 [Compound 497] , output reported IC50.
(A) > 10 µM

(Q) Input OCc1[nH]nnc1SC1CCN(c2cc(Cl)cc(Cl)c2)CC1 [Compound 495] , output reported IC50.
(A) > 10 µM

(Q) Input OCc1[nH]nnc1O[C@H]1CC[C@H](c2ccc(OC(F)(F)F)cc2)CC1 [Compound 488] , output reported IC50.
(A) 1 to 5 µM

(Q) Input OCc1nn[nH]c1Oc1ccc(-c2ccc(N3CCCCC3)cc2)cc1 [Compound 496] , output reported IC50.
(A) < 1 µM

These data points were gathered from patent US20230088214A1.
